Where do these numbers come from? They come from patent US6562978B1.

target: human CCR5 (Homo sapiens); construct: expressed in transfected cells; whole cells in the well; test: CCR5 binding assay: inhibition of [125I]-RANTES binding to CHO/CCR5 cells; conditions: 1.0 μM test compound, 100 pM [125I]-RANTES, room temperature 40 minutes, read-out: Inhibition Rate (%) at 1.0 μM
Sequence (P51681 whole entry): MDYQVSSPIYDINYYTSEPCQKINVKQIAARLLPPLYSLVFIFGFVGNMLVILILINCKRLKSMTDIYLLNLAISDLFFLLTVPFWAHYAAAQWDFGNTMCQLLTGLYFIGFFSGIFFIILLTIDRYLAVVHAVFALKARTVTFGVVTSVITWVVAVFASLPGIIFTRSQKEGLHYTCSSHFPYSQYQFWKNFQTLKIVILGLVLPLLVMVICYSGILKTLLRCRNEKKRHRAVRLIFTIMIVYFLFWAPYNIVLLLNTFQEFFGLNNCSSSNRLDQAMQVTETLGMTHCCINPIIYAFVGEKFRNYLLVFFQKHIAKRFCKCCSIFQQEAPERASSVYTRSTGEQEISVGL
Where a name gives a salt, the structure may show the parent alone.
Below, each of the compounds is paired with its reported inhibition at 1 µM value.
VALUE_KIND: inhibition at 1 µM (%)

>>> readout_value("CC(=O)N1CCC(C(=O)N(CCCN2CCC(Cc3ccccc3)CC2)Cc2ccc(Cl)cc2)CC1 [Example 40, Trifluoroacetate]")
98
>>> readout_value("Cc1cc(NS(=O)(=O)c2ccc(CC3CCN(CCCN(C(=O)C4CCN(S(C)(=O)=O)CC4)c4ccc(Cl)c(Cl)c4)CC3)cc2)no1")
97
>>> readout_value("CC(C)S(=O)(=O)c1ccc(CC2CCN(CCCN(C(=O)C3CCN(S(C)(=O)=O)CC3)c3ccc(Cl)c(Cl)c3)CC2)cc1")
100
>>> readout_value("CS(=O)(=O)N1CCC(C(=O)N(CCCN2CCC(Cc3ccc(C(N)=O)cc3)CC2)c2ccc(Cl)c(Cl)c2)CC1")
95
>>> readout_value("CS(=O)(=O)c1ccc(OC2CCN(CCCN(C(=O)C3CCN(S(C)(=O)=O)CC3)c3ccc(Cl)c(Cl)c3)CC2)cc1")
92

====

Listed below: inhibition at 1 µM values for each entry.
biological target: human CCR5 (Homo sapiens); construct: expressed in transfected cells; whole cells in the well; assay: CCR5 binding assay: inhibition of [125I]-RANTES binding to CHO/CCR5 cells; conditions: 1.0 μM test compound, 100 pM [125I]-RANTES, room temperature 40 minutes, read-out: Inhibition Rate (%) at 1.0 μM
Where a name gives a salt, the structure may show the parent alone.
VALUE_KIND: inhibition at 1 µM (%)

>>> readout_value("CS(=O)(=O)c1ccc(CC2CCN(CCCN(C(=O)C3CCN(S(C)(=O)=O)CC3)c3ccc(Cl)c(Cl)c3)CC2)cc1 [Example 420, Hydrochloride]")
98
>>> readout_value("CS(=O)(=O)N1CCC(NC(=O)N(CCCN2CCC(Cc3ccccc3)CC2)c2ccccc2)CC1 [Example 15]")
97
>>> readout_value("CC(=O)N1CCC(C(=O)N(CCCN2CCC(Cc3ccc(-n4cnnn4)cc3)CC2)c2ccc(Cl)c(Cl)c2)CC1 [Example 300]")
100
>>> readout_value("CCS(=O)(=O)c1ccc(CC2CCN(CCCN(C(=O)C3CCN(S(C)(=O)=O)CC3)c3cccc(Cl)c3)CC2)cc1 [Example 413, Hydrochloride]")
99
>>> readout_value("CN(C)C(=O)N1CCC(C(=O)N(CCCN2CCC(Cc3ccccc3)CC2)c2ccc(Cl)c(Cl)c2)CC1 [Example 27]")
99
>>> readout_value("CC(=O)N1CCC(C(=O)N(CCCN2CCC(n3nnc4ccccc43)CC2)c2cccc(Cl)c2)CC1 [Example 289]")
83
>>> readout_value("CC(=O)N1CCC(C(=O)N(CCCN2CCC(Cc3nccs3)CC2)c2cccc(Cl)c2)CC1 [Example 168, Ditrifluoroacetate]")
82
>>> readout_value("CC(=O)N1CCC(C(=O)N(CCCN2CCC(Cc3ccc(NS(C)(=O)=O)cc3)CC2)c2ccc(Cl)c(Cl)c2)CC1 [Example 304]")
99
>>> readout_value("CS(=O)(=O)N1CCC(C(=O)N(CCCN2CCC(Cn3cnc4ccccc43)CC2)c2ccc(Cl)c(Cl)c2)CC1 [Example 261]")
98
